The measured values listed here are drawn from ChEMBL document CHEMBL4396888.

assay: Ratio of drug level in tumor of nude BALB/c mouse xenografted with human MOLM13 cells to IC50 for antiproliferative activity against human MOLM13 cells; type: cell-based
Measurement Name: Ratio

# Ratio lookup, item CNC[C@@H](O)CN1CCc2c(cccc2OCc2ccc(-c3nccs3)cc2)C1
20 to 30

---

assay: AUC (0 to last) in ICR mouse at 10 mg/kg, po administered via gavage by mass spectrometric analysis; type: ADME, organism-based; parameters: dose 10 mg/kg, route oral, time 0 - last; details: in vivo
Measurement Name: AUC(0-t)
Number first, unit second.

# AUC(0-t) lookup, item CNC[C@@H](O)CN1CCc2c(cccc2OCc2ccc(-c3nccs3)cc2)C1
1410 ng·h/mL

---

target: Histone-arginine methyltransferase CARM1 (Homo sapiens); assay: Inhibition of PRMT4 in human MOLM13 cells assessed as reduction in BAF155 dimethylation measured after 96 hrs by Western blotting analysis; format: cell-based
Sequence (Q86X55 whole entry): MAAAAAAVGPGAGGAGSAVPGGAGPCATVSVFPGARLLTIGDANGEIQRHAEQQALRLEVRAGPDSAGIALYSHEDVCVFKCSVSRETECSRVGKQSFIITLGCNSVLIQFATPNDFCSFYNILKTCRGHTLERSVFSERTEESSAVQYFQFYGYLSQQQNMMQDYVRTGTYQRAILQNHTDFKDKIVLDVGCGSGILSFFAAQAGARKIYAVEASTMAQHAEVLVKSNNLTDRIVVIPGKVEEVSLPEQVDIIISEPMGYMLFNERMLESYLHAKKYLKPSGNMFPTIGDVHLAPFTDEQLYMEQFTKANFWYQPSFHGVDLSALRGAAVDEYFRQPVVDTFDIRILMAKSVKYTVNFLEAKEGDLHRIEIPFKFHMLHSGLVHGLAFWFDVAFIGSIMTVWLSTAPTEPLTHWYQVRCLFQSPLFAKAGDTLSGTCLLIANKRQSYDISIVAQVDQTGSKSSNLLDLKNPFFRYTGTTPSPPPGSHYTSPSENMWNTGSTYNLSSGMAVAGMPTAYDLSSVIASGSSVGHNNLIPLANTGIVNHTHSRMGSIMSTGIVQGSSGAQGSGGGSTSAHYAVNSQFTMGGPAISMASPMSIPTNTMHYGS
Measurement Name: pIC50
In textbook form, pIC50 equals minus log to base ten of the concentration in mol/L.

# pIC50 lookup, item CNC[C@@H](O)CN1CCc2c(cccc2OCc2ccc(-c3nccs3)cc2)C1
6.43

---

experiment: AUC (0 to last) in ICR mouse at 3 mg/kg, iv by mass spectrometric analysis; assay type: ADME, organism-based; parameters: dose 3 mg/kg, route intravenous, time 0 - last; conditions: in vivo
Measurement Name: AUC(0-t) (ng·h/mL)
Lab book: enter the figure in ng·h/mL, no units written.

# AUC(0-t) lookup, item CNC[C@@H](O)CN1CCc2c(cccc2OCc2ccc(-c3nccs3)cc2)C1
869

---

assay: Volume of distribution at steady state in ICR mouse at 3 mg/kg, iv by mass spectrometric analysis; type: ADME, organism-based; settings: in vivo, read-out: Vdss
Measurement Name: Vd (L/kg)
Lab book: enter the figure in L/kg, no units written.

# Vd lookup, item CNC[C@@H](O)CN1CCc2c(cccc2OCc2ccc(-c3nccs3)cc2)C1
42.6

---

experiment: Clearance in ICR mouse at 3 mg/kg, iv by mass spectrometric analysis; assay type: ADME, organism-based; details: in vivo
Measurement Name: clearance

# clearance lookup, item CNC[C@@H](O)CN1CCc2c(cccc2OCc2ccc(-c3nccs3)cc2)C1
44.9 mL/min/kg

---

target: Protein arginine N-methyltransferase 3 (Homo sapiens)
Sequence (O60678 whole entry): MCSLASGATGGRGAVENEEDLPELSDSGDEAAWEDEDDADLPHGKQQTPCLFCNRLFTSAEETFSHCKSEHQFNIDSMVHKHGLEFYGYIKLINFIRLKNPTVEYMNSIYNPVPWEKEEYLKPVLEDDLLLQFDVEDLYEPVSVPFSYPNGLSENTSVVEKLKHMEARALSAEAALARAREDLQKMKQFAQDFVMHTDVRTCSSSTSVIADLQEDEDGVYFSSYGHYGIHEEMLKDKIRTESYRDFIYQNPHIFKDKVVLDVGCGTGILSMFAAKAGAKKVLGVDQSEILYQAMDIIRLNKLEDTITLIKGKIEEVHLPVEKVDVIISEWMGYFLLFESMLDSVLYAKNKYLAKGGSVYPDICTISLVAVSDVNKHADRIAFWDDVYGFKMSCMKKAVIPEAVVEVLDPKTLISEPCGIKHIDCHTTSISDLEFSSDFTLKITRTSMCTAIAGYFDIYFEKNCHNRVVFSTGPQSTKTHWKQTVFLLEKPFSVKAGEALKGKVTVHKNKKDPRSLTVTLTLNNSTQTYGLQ
pIC50: −log10 of the molar value.
Measurement Name: pIC50

# pIC50 lookup, item CNC[C@@H](O)CN1CCc2c(cccc2OCc2ccc(-c3nccs3)cc2)C1
< 5.00

---

Target: Protein arginine N-methyltransferase 7 (Homo sapiens, UniProt Q9NVM4)
Sequence (Q9NVM4 whole entry): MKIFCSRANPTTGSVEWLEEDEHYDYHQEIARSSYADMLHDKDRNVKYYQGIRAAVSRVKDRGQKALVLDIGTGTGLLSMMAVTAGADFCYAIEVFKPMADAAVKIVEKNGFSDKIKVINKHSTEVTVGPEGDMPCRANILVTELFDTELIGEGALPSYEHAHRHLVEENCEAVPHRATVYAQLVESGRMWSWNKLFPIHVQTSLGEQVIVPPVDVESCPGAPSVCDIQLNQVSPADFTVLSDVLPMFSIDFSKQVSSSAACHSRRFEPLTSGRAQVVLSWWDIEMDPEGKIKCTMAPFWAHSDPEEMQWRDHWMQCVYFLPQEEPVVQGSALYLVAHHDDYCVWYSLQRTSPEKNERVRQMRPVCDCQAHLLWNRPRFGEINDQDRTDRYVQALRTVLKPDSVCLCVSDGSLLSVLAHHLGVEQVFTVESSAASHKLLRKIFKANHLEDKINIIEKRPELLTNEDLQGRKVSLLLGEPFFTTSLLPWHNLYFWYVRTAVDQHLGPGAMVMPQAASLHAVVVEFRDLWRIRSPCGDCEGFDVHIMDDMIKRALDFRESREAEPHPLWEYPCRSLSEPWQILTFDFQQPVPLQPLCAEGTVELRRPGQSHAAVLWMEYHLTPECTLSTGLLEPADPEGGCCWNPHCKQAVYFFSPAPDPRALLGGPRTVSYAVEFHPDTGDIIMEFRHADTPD
Test: Inhibition of recombinant full-length human PRMT7 expressed in Sf9 insect cells using Ac-KKDGKKRKRSRKESYK-biotin as substrate measured after 30 mins in presence of SAM by topcount scintillation counting method
Measurement Name: IC50

# IC50 lookup, item CNC[C@@H](O)CN1CCc2c(cccc2OCc2ccc(-c3nccs3)cc2)C1
> 30 µM
